B1: EHEE_rd4_0726 (parent)
chain: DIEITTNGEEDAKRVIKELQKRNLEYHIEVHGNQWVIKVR

# Variants of: B1
# measurement.description: folding stability dG (cDNA display proteolysis); higher = more stable
# cond: PBS, room temperature
Quick reference for folding stability dG among some variants

construct.sequence | folding stability dG [kcal/mol]
DIEITTNGEEDAKRVIKELQKRNLEYHIEVHGNQWVLKVR [I37L] | 1.21
DIEITTNGEEDAKRVIKELQKRNLEYTIEVHGNQWVIKVR [H27T] | 3.34
DIEITTNGEEDAKRVIKELYKRNLEYHIEVHGNQWVIKVR [Q20Y] | 1.64
DIEITTNGEEDAKRVIKELQKRNLEYHIEVHDNQWVIKVR [G32D] | 1.85
